test system: mice; experiment: Neuropharmacological Assay (SmartCube): automated behavioral signature of compound-treated mice compared with a database of reference drug classes; format: in vivo; details: SmartCube probability class, 3.0 mg/kg dose, i.p. 15 min before the behavioral test, hydrochloride, 3 mg/kg
Where a name gives a salt, the structure may show the parent alone.
observation_type: AX

Observe how each entry below is paired with its result.
>>> df
                                   molecule  experimental_result
0  CC1(N)CCc2sccc2C1 (single isomer, unassigned) [Compound 281, hydrochloride]              + (≥4%)
1  CNC1COc2c(C)csc2C1 (single isomer, unassigned) [Compound 297, hydrochloride]           ND (^ <4%)
2  CNC1Cc2scc(C3CC3)c2C1 (single isomer, unassigned) [Compound 321, hydrochloride]          ++++ (≥74%)
3  CNC1Cc2scc(C)c2C1 (single isomer, unassigned) [Compound 316, hydrochloride]           ND (^ <4%)
4  CNC1Cc2cc(C)sc2C1 (single isomer, unassigned) [Compound 318, hydrochloride]              + (≥4%)
5  CNC1Cc2cc(C)sc2C1 (single isomer, unassigned) [Compound 319, hydrochloride]          ++++ (≥74%)
6  CC1(N)CCc2sccc2C1 (single isomer, unassigned) [Compound 282, hydrochloride]           ND (^ <4%)
7  CNC1Cc2scc(C(F)(F)F)c2C1 (single isomer, unassigned) [Compound 314, hydrochloride]           ND (^ <4%)
8  CNC1COc2c(C)csc2C1 (single isomer, unassigned) [Compound 298, hydrochloride]           +++ (≥49%)
9  CNC1Cc2scc(C(F)(F)F)c2C1 (single isomer, unassigned) [Compound 315, hydrochloride]          ++++ (≥74%)

[ask] Return value of AX for input CNC1Cc2scc(C)c2C1 (single isomer, unassigned) [Compound 317, hydrochloride] , no commentary.
[reply] +++ (≥49%)

[ask] Return value of AX for input CNC1Cc2scc(C3CC3)c2C1 (single isomer, unassigned) [Compound 320, hydrochloride] , no commentary.
[reply] ND (^ <4%)

###

test system: mice; experiment: Neuropharmacological Assay (SmartCube): automated behavioral signature of compound-treated mice compared with a database of reference drug classes; format: in vivo; settings: probability that activity matches this class of agents, 3.0 mg/kg i.p., 15 min before test, 3 mg/kg
observation_type: AP

Observe how each entry below is paired with its result.
In [3]: df
Out[3]:
                                   molecule  experimental_system  observation_type  experimental_result
0  CNC1CCc2cc(C(F)(F)F)sc2C1 (single isomer, unassigned) [Compound 38]                 mice                AP           ND (^ <4%)
1  CNC1CCc2sc(F)cc2C1 (single isomer, unassigned; enantiomer 2) [Compound 99]                 mice                AP           ND (^ <4%)
2  CNC1CCc2cc(C(F)(F)F)sc2C1 (single isomer, unassigned) [Compound 39]                 mice                AP            ++ (≥24%)
3  CNC1CCc2c(C)sc(C(F)(F)F)c2C1 (single isomer, unassigned; enantiomer 2) [Compound 105]                 mice                AP           ND (^ <4%)
4  CNC1CCc2sc(F)cc2C1 (single isomer, unassigned; enantiomer 1) [Compound 98]                 mice                AP            ++ (≥24%)

In the following, a different molecule is considered.
[ask] Return value of AP for input CNC1CCc2c(C)sc(C(F)(F)F)c2C1 (single isomer, unassigned; enantiomer 1) [Compound 104] , no commentary.
[reply] ++ (≥24%)
